List of pKi values.
test-system: Retinoic acid receptor RXR-beta (Homo sapiens)
Sequence (P28702 whole entry): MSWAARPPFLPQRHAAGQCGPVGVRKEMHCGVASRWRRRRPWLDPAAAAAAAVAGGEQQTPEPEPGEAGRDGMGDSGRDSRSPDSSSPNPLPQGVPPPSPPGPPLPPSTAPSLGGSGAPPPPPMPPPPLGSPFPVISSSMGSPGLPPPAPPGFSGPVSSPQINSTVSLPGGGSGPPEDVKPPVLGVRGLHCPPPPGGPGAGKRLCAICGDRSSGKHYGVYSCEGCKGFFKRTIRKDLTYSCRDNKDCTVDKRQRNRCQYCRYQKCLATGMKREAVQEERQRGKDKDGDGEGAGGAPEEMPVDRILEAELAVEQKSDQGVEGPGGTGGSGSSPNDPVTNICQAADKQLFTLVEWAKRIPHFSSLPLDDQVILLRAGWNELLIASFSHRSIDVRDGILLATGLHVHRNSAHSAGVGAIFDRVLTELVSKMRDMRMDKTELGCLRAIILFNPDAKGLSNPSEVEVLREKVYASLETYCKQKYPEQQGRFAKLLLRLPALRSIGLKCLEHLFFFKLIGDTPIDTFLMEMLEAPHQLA
test: Binding affinity to RXRbeta
conditions: read-out: Ki
Just the number, please; pKi means minus log10 of the concentration in mol/L.

Prompt line: # query: pKi of entry CC(/C=C/CN(C)c1cc(C(C)(C)C)cc(C(C)(C)C)c1)=C\C(=O)O
Response line: 7.06

Prompt line: # query: pKi of entry CCCN(C/C=C/C(C)=C/C(=O)O)c1cc(C(C)(C)C)cc2c1CCC2(C)C
Response line: 7.92

Prompt line: # query: pKi of entry CCCN(C/C=C/C(C)=C/C(=O)O)c1ccc2c(c1)C(C)(C)CCC2(C)C
Response line: 7.14

Prompt line: # query: pKi of entry CCN(C/C=C/C(C)=C/C(=O)O)c1cc2c(cc1C)C(C)(C)CCC2(C)C
Response line: 6.82

Prompt line: # query: pKi of entry CC(/C=C/[C@H]1CCCN1c1ccc2c(c1)C(C)(C)CCC2(C)C)=C\C(=O)O
Response line: 6.73

Prompt line: # query: pKi of entry CCCCN(C/C=C/C(C)=C/C(=O)O)c1cc(C(C)(C)C)cc2c1CCC2(C)C
Response line: 7.22

Prompt line: # query: pKi of entry CCN(C/C=C/C(C)=C/C(=O)O)c1cc(C(C)(C)C)cc(C(C)(C)C)c1
Response line: 7.62

Prompt line: # query: pKi of entry CCCN(C/C=C/C(C)=C/C(=O)O)c1cc2c(cc1C)C(C)(C)CCC2(C)C
Response line: 6.79

----------
test-system: Retinoic acid receptor RXR-beta (Homo sapiens, UniProt P28702)
test: Transactivation of RXRbeta in CV1 cells by cotransfection assay
Assay type: functional, cell-based, CV-1
conditions: read-out: EC50
List of pEC50 values.
Just the number, please; pEC50 means minus log10 of the concentration in mol/L.

{"molecule-smiles": "CCCN(C/C=C/C(C)=C/C(=O)O)c1cc2c(cc1OC)C(C)(C)CCC2(C)C", "pEC50": 6.77}
{"molecule-smiles": "CCCCN(C/C=C/C(C)=C/C(=O)O)c1cc(C(C)(C)C)cc2c1CCC2(C)C", "pEC50": 7.28}
{"molecule-smiles": "CCN(C/C=C/C(C)=C/C(=O)O)c1cc(C(C)(C)C)cc(C(C)(C)C)c1", "pEC50": 6.63}
{"molecule-smiles": "CCCN(C/C=C/C(C)=C/C(=O)O)c1cc(C(C)(C)C)cc2c1CCC2(C)C", "pEC50": 7.68}

Prompt line: # query: pEC50 of entry CC(/C=C/CN(CC1CC1)c1cc(C(C)(C)C)cc2c1CCC2(C)C)=C\C(=O)O
Response line: 7.01

----------
test-system: Retinoic acid receptor RXR-alpha (Homo sapiens)
Sequence (P19793 whole entry): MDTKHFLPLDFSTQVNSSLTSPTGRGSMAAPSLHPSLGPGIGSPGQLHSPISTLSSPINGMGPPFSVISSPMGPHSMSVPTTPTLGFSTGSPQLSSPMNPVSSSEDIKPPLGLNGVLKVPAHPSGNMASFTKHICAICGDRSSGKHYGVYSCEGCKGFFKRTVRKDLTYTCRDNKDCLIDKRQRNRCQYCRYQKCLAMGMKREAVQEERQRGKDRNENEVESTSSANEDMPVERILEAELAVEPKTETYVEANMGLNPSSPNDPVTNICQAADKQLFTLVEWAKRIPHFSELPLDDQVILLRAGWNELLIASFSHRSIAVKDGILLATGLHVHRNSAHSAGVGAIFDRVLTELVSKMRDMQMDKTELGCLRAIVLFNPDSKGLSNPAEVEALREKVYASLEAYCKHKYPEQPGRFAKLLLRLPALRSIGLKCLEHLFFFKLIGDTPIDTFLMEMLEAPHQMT
test: Transactivation of RXRalpha in CV1 cells by cotransfection assay
Type: functional, cell-based, CV-1
conditions: read-out: EC50
List of log10 of EC50 values.
Please be aware that the numbers have been log10-transformed from EC50 in nM.

{"molecule-smiles": "CCN(C/C=C/C(C)=C/C(=O)O)c1cc(C(C)(C)C)cc(C(C)(C)C)c1", "readout-value": 2.34}
{"molecule-smiles": "CCN(C/C=C/C(C)=C/C(=O)O)c1ccc2c(c1)C(C)(C)CCC2(C)C", "readout-value": 2.33}
{"molecule-smiles": "CC(/C=C/[C@@H]1CCCN1c1ccc2c(c1)C(C)(C)CCC2(C)C)=C\\C(=O)O", "readout-value": 2.25}
{"molecule-smiles": "CCCN(C/C=C/C(C)=C/C(=O)O)c1cc2c(cc1C)C(C)(C)CCC2(C)C", "readout-value": 2.36}
{"molecule-smiles": "CC(/C=C/CN(c1cc(C(C)(C)C)cc2c1CCC2(C)C)C(C)C)=C\\C(=O)O", "readout-value": 2.40}
{"molecule-smiles": "CCCN(C/C=C/C(C)=C/C(=O)O)c1cc2c(cc1OC)C(C)(C)CCC2(C)C", "readout-value": 2.60}
{"molecule-smiles": "CCCN(C(=O)/C=C/C(C)=C/C(=O)O)c1cc(C(C)(C)C)cc(C(C)(C)C)c1", "readout-value": 3.00}
{"molecule-smiles": "CCN(C/C=C/C(C)=C/C(=O)O)c1cc2c(cc1C)C(C)(C)CCC2(C)C", "readout-value": 1.81}

Proceed to the following item.
Prompt line: # query: log10 of EC50 of entry CC(/C=C/CN(CC1CC1)c1cc(C(C)(C)C)cc2c1CCC2(C)C)=C\C(=O)O
Response line: 2.09

----------
test-system: Retinoic acid receptor RXR-gamma (Homo sapiens)
Sequence (P48443 whole entry): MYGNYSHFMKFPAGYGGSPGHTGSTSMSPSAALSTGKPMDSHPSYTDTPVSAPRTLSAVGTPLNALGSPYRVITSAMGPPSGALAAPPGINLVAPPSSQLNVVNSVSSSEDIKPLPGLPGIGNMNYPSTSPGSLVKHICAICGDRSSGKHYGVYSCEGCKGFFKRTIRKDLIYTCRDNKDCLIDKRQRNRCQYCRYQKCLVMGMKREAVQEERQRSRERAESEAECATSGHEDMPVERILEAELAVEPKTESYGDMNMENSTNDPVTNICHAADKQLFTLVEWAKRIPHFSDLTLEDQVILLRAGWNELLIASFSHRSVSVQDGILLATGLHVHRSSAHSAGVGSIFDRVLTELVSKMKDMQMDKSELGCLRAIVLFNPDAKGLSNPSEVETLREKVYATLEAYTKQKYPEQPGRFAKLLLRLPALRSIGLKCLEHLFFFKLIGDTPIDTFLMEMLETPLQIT
test: Binding affinity to RXRgamma
conditions: read-out: Ki
readout-kind: pKi
Just the number, please; pKi means minus log10 of the concentration in mol/L.

Answered cases to consult:
{"molecule-smiles": "CCCCN(C/C=C/C(C)=C/C(=O)O)c1cc(C(C)(C)C)cc2c1CCC2(C)C", "readout-kind": "pKi", "readout-value": 7.51}
{"molecule-smiles": "CCN(C/C=C/C(C)=C/C(=O)O)c1ccc2c(c1)C(C)(C)CCC2(C)C", "readout-kind": "pKi", "readout-value": 6.79}
{"molecule-smiles": "CCCN(C/C=C/C(C)=C/C(=O)O)c1cc2c(cc1C)C(C)(C)CCC2(C)C", "readout-kind": "pKi", "readout-value": 6.68}
{"molecule-smiles": "CC(/C=C/[C@H]1CCCN1c1ccc2c(c1)C(C)(C)CCC2(C)C)=C\\C(=O)O", "readout-kind": "pKi", "readout-value": 6.69}

Proceed to the following item.
Prompt line: # query: pKi of entry CCCN(C/C=C/C(C)=C/C(=O)O)c1cc(C(C)(C)C)cc2c1CCC2(C)C
Response line: 8.00

----------
test-system: Retinoic acid receptor RXR-gamma (Homo sapiens)
test: Transactivation of RXRgamma in CV1 cells by cotransfection assay
Format: functional, cell-based, CV-1
conditions: read-out: EC50
readout-kind: EC50 (nM)
Field format: number, assumed nM, no unit text.

Answered cases to consult:
{"molecule-smiles": "CC(/C=C/CN(C)c1cc(C(C)(C)C)cc(C(C)(C)C)c1)=C\\C(=O)O", "readout-value": 322}
{"molecule-smiles": "CCCN(C/C=C/C(C)=C/C(=O)O)c1ccc2c(c1)C(C)(C)CCC2(C)C", "readout-value": 170}
{"molecule-smiles": "CCCN(C(=O)/C=C/C(C)=C/C(=O)O)c1cc(C(C)(C)C)cc(C(C)(C)C)c1", "readout-value": 669}
{"molecule-smiles": "CC(/C=C/[C@H]1CCCN1c1ccc2c(c1)C(C)(C)CCC2(C)C)=C\\C(=O)O", "readout-value": 1260}

Prompt line: Form field - read-out: EC50; system: Retinoic acid receptor RXR-gamma (Homo sapiens); submitted item: CCCCN(C/C=C/C(C)=C/C(=O)O)c1cc(C(C)(C)C)cc2c1CCC2(C)C
Response line: 50

Prompt line: Form field - read-out: EC50; system: Retinoic acid receptor RXR-gamma (Homo sapiens); submitted item: CCCCCCCCN(C/C=C/C(C)=C/C(=O)O)c1cc(C(C)(C)C)cc(C(C)(C)C)c1
Response line: 35

----------
test-system: Retinoic acid receptor RXR-beta (Homo sapiens, UniProt P28702)
test: Transactivation of RXRbeta in CV1 cells by cotransfection assay
Type: functional, cell-based, CV-1
conditions: read-out: EC50
# if measured EC50 < 0.2 µM: yes (1)  # else: no (0)

Prompt line: Dear reviewer, please state whether CCCN(C/C=C/C(C)=C/C(=O)O)c1cc2c(cc1C)C(C)(C)CCC2(C)C has EC50 strictly beneath 0.2 µM.
Response line: no (0)

Prompt line: Dear reviewer, please state whether CC(/C=C/[C@@H]1CCCN1c1ccc2c(c1)C(C)(C)CCC2(C)C)=C\C(=O)O has EC50 strictly beneath 0.2 µM.
Response line: yes (1)

Prompt line: Dear reviewer, please state whether CCCN(C/C=C/C(C)=C/C(=O)O)c1cc(C(C)(C)C)cc(C(C)(C)C)c1 has EC50 strictly beneath 0.2 µM.
Response line: yes (1)

Prompt line: Dear reviewer, please state whether CCN(C/C=C/C(C)=C/C(=O)O)c1cc2c(cc1C)C(C)(C)CCC2(C)C has EC50 strictly beneath 0.2 µM.
Response line: yes (1)
